# key: entry, value: TGI
System: SNB-78 CNS
TEST: NCI tumour cell line growth inhibition, 48 h

Record excerpt, results attached:
{"COMPOUND": "Cc1[nH]c(=O)nc(CC(O)(c2ccccc2)c2ccccc2)c1-c1ccccc1", "TGI": "> 100 µM"}
{"COMPOUND": "CCN(CC)CCN=Cc1c(O)c(O)c(C(C)C)c2cc(C)c(-c3c(C)cc4c(C(C)C)c(O)c(O)c(C=NCCN(CC)CC)c4c3O)c(O)c12", "TGI": "5.6 µM"}
{"COMPOUND": "COC1=CC(C2c3cc4c(cc3[C@@H](Nc3ccc([N+](=O)[O-])cc3)C3COC(=O)[C@H]23)OCO4)=CC(=O)C1=O (stereo not given in full)", "TGI": "> 100 µM"}
{"COMPOUND": "CCCCOP(=O)(OCCCC)/C(C#N)=C/c1ccco1", "TGI": "> 100 µM"}

# next compound below
Bench note: what TGI did CC(=O)NCCCCCCNC(C)=O show?
> 10000 µM

----------
Test system: HCT-15 colon
TEST: NCI tumour cell line growth inhibition, 48 h
REPORTED_METRIC: TGI

Record excerpt, results attached:
{"COMPOUND": "COc1ccc(NC(=O)Nc2ccc(Nc3nc(C)cc(Nc4ccc(C)cc4)n3)cc2)cc1", "REPORTED_METRIC": "TGI", "ENDPOINT_VALUE": "3.29 µM"}
{"COMPOUND": "CN(C)CCCSc1c2ccccc2nc2cc(NCC(=O)Nc3ccccc3-c3ccccc3NC(=O)CNc3ccc4c(SCCCN(C)C)c5ccccc5nc4c3)ccc12", "REPORTED_METRIC": "TGI", "ENDPOINT_VALUE": "> 100 µM"}
{"COMPOUND": "CCOC(=O)c1nc2ccc(Cl)cc2c2c1CCO2", "REPORTED_METRIC": "TGI", "ENDPOINT_VALUE": "> 100 µM"}
{"COMPOUND": "O=C1C(Cl)=C(Nc2cccc(C(F)(F)F)c2)C(=O)N1Cc1ccccc1Cl", "REPORTED_METRIC": "TGI", "ENDPOINT_VALUE": "20.6 µM"}
{"COMPOUND": "Cn1cc2c(=O)n3ncn(-c4ccc(Br)cc4)c3nc2n1", "REPORTED_METRIC": "TGI", "ENDPOINT_VALUE": "> 100 µM"}
{"COMPOUND": "CCOC(=O)CNC(=O)CCCn1c(=O)c2c3ccccc3n(C)c2n2nnc(-c3ccccc3)c12", "REPORTED_METRIC": "TGI", "ENDPOINT_VALUE": "> 50 µM"}

Quick one: TGI of CCOC(=O)c1c(C)n(CC(C)C)c2c1cc1oc(=O)c(=O)n3cnc2c13 ?
> 50 µM

Same question for Cc1c2ccnc(-c3ccccc3)c2cc2c1[nH]c1ccccc12 please.
9.62 µM

----------
Test system: COLO 205 colon
TEST: NCI tumour cell line growth inhibition, 48 h; in the data active = GI50 below about 0.43 µM; inactive = the rest
Field 'call' accepts True (active), False (inactive)

{"COMPOUND": "O=C1C=CN(C2OC(CO)C(O)C2O)C(=O)C1 (stereo unspecified)", "SYSTEM_TESTED": "COLO 205 colon", "LABEL": "False"}

Lab log entry: COc1cc(C2CC(c3ccc4c(c3)OCO4)=NN2C(C)=O)cc(OC)c1OC (stereo unspecified) — outcome as called in the assay?
False

Request: Cc1ccccc1-n1c(/C=C\c2ccccn2)nc2ccccc2c1=O
False

Try COc1cc(-c2nc(SCC(=O)Nc3ccc(C(C)=O)cc3)[nH]c(=O)c2C#N)cc(OC)c1OC next.
False

// next record CS(=O)c1ccc(-c2nc(-c3ccc(F)cc3)c(-c3ccncc3)[nH]2)cc1 (stereo unspecified)
False

Query C[C@@H]1CC[C@H]2C(COC/C=C/COCC3=C(C(F)(F)F)O[C@@H]4O[C@@]5(C)CC[C@H]6[C@H](C)CC[C@@H]3[C@@]46OO5)=C(C(F)(F)F)O[C@@H]3O[C@@]4(C)CC[C@@H]1[C@]32OO4 next
True

----------
Test system: KM12 colon
TEST: NCI tumour cell line growth inhibition, 48 h; in the data active = GI50 below about 0.43 µM; inactive = the rest
Hello, when you answer, please use one of the following outcomes: active, inactive

Take a look at these entries with their results.
{"MOLECULE": "CC[C@H](Nc1nc(N)nc(N)c1Cl)c1nc2cccc(NCc3ccc(C(=O)NO)cc3)c2c(=O)n1-c1ccccc1", "LABEL": "inactive"}
{"MOLECULE": "COC(=O)[C@@H](Cc1c[nH]c2ccccc12)NC(=O)/C=C/c1ccccc1", "LABEL": "inactive"}
{"MOLECULE": "CC[C@@H](C)[C@H]([C@H](CC(=O)N1CCC[C@@H]1[C@@H](OC)[C@H](C)C(=O)N[C@H](Cc1ccccc1)c1nccs1)OC)N(C)C(=O)[C@H](NC(=O)[C@@H](C(C)C)N(C)C)C(C)C", "LABEL": "active"}
{"MOLECULE": "Cc1ccc(C2SCc3nc4ccc(C(=O)c5ccccc5)cc4n32)cc1 (stereo not given)", "LABEL": "inactive"}

Call for entry COc1ccc2[nH]c(-c3cccc(N(C)C)c3)cc(=O)c2c1 :
active

Thanks! And O=C(c1ccco1)c1c(C(F)(F)F)nc2cc(C(F)(F)F)ccc2[n+]1[O-] ?
inactive

Quick one: CCCC(=O)NC(c1ccc2c(c1)OCO2)c1ccc2cccnc2c1O (stereo not given)
inactive

And the next one, C=CC[Se]C(=O)Cc1c(C)n(C(=O)c2ccc(Cl)cc2)c2ccc(OC)cc12 ?
inactive

Now try COc1ccc(C2C(c3ccccc3)C(=O)N2c2cc(OC)c(OC)c(OC)c2)cc1I (stereo not given) .
active

Same lookup for COc1ccc2c(c1OC)-c1c(c3ccc([N+](=O)[O-])cc3c(=O)n1CCCN=[N+]=[N-])C2=O , please.
inactive

Follow-up item: O=C(NCCCNC(=O)OCc1ccc2c(Br)cc(Br)c(O)c2n1)OCc1ccc2c(Br)cc(Br)c(O)c2n1
inactive

----------
Entries and their measured TGI follow.
Tested on: RPMI-8226 leukemia
TEST: NCI tumour cell line growth inhibition, 48 h

Below: 5 compounds and their reported TGI.
{"COMPOUND": "C[C@H]1COC2(c3ccccc3)CCC(=O)N12 (stereo partly specified)", "ENDPOINT_VALUE": "> 100 µM"}
{"COMPOUND": "O=c1oc2ccccc2cc1-c1nnc(-c2ccccc2)s1", "ENDPOINT_VALUE": "> 100 µM"}
{"COMPOUND": "CC1(C)OC(=O)C(C)(C)OC1=O", "ENDPOINT_VALUE": "> 100 µM"}
{"COMPOUND": "N#CC1=C(C#N)/C(=C(\\C#N)C(C#N)C#N)N=C1N", "ENDPOINT_VALUE": "> 81.3 µM"}
{"COMPOUND": "O=C(O)c1ccc(S(=O)(=O)N=Nc2c(O)[nH]c3ccccc23)cc1", "ENDPOINT_VALUE": "> 100 µM"}

What measured TGI goes with Cn1cnc([N+](=O)[O-])c1SCC(=O)O ?
> 100 µM

What about this compound? COc1ccccc1CNC(=O)C1c2ccccc2C(=O)N(CC(C)C)C1c1cccs1 (stereo unspecified)
45.2 µM

Now give it for CC1=CC2(O)OC3(CC2=C(C)C)C(C)CCC13 (stereo unspecified) too.
> 100 µM

// next record CC(=O)n1nc(-c2nc3ccccc3nc2Cl)cc1Cl
> 100 µM

Follow-up item: O=C1C(Cl)=C(Nc2cccc(C(F)(F)F)c2)C(=O)N1Cc1ccccc1Cl
> 23.5 µM

Request: C#CCOc1ccc2ncnc(Nc3ccc(NC(=O)CCl)cc3)c2c1
18.1 µM

----------
Listing of recorded log10 of TGI by entry.
System: M19-MEL melanoma
TEST: NCI tumour cell line growth inhibition, 48 h
All values: base-10 log of TGI in µM.

{"COMPOUND": "COc1cccc(/C(C=O)=C(\\Cl)c2ccc(OC)c(OC)c2)c1", "log10 of TGI": 1.37}
{"COMPOUND": "CCc1ccccc1-n1c2nc(=O)n(C)c(=O)c-2nc2ccccc21", "log10 of TGI": 0.57}

I am curious: what log10 of TGI value has been reported for COc1cc2ccc1-c1cc(ccc1O)CC1c3cc4c(cc3CCN1C)Oc1c(OC)cc3c(c1O4)C(C2)N(C)CC3 (stereo unspecified) ?
0.53

Repeat with CCOC(=O)C1=C(O)c2ccccc2C(=O)C1=O
1.74

Same read-out for COc1cc2c(cc1OC)C(Cl)C(c1ccc(Cl)cc1)=C2Cl (stereo unspecified) ?
1.62

Follow-up entry: O=C1C=CN(C2OC(CO)C(O)C2O)C(=O)C1 (stereo unspecified)
3.14

Same lookup for NC(=O)c1csc(CCCCCCc2nc(C(N)=O)cs2)n1 , please.
1.69
